- measuredOn: SARS-COV-2 RBD extracellular domain expressed with a C-terminal mouse IgG2a Fc (SARS-CoV-2)
- testName: Biacore SPR, mAb captured on anti-hFc, 37 C
Measured t½ by item
Number in h, nothing else.

binder: mAb14247 (antibody, V domains shown) VH: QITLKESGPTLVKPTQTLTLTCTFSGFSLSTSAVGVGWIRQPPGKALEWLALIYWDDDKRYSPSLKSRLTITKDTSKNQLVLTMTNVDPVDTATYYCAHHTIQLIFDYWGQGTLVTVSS VL: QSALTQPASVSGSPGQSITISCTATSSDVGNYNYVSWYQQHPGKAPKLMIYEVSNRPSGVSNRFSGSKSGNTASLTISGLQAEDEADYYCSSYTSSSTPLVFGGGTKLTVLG
t½ / h: 1.28

Here's the next entry for you.
(Q) Item mAb15165 (antibody, V domains shown) VH: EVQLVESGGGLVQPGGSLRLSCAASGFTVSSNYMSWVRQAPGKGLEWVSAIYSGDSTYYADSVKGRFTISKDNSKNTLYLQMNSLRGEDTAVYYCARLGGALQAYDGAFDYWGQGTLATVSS VL: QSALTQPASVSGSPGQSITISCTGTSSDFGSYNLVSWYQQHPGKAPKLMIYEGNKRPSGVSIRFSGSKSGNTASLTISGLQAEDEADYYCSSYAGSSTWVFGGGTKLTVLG has what recorded t½?
(A) 4.23

Values compiled from patent US20260069689A1.
